- TARGET OF ASSAY: wild type human HSD17B13 (Homo sapiens (Human), UniProt Q7Z5P4)
- Sequence (Q7Z5P4 20-300): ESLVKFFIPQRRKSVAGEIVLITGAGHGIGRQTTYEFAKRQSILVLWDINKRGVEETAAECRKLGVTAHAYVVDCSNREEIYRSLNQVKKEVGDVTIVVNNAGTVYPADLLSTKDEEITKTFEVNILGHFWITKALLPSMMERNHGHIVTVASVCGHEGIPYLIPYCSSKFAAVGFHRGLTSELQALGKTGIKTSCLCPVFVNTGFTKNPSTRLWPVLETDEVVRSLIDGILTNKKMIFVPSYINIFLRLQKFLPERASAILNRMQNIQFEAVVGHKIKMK
- ASSAY NAME: HEK_Beta-Est LCMS_IC50_Tekcel, whole-cell HEK-HSD17B13 inhibition assay, estrone production by LCMS
- STATED CONDITIONS: geometric mean, HEK cells stably expressing wild type human HSD17B13, 25 μM FAC beta-estradiol, read-out: HEK_Beta-Est LCMS_IC50—Tekcel GMean IC50
Counter-ions that a name gives are not always drawn.
QUANTITY NAME: IC50 (nM)
The reply should contain only the number, in nM.

Qu. API: value(readout=IC50, system=wild type human HSD17B13 (Homo sapiens (Human), UniProt Q7Z5P4)) for record O=C(NC[C@H]1CC[C@H](n2cc3ccc(-c4cnc5[nH]ccc5c4)cc3n2)CC1)c1cc(F)c(O)c(F)c1 [Example 112, trifluoroacetate salt]
Ans. 220

Qu. Item: O=C(NC[C@H]1CC[C@H](n2cc3ccc(-c4ncc(CO)cn4)cc3n2)CC1)c1cc(F)c(O)c(F)c1 [Example 58] Test system: wild type human HSD17B13 (Homo sapiens (Human), UniProt Q7Z5P4) Read-out: IC50 Value: ?
Ans. 280

Qu. Form field - read-out: IC50; system: wild type human HSD17B13 (Homo sapiens (Human), UniProt Q7Z5P4); submitted item: Cc1cnc(-c2ccc3cn([C@H]4CC[C@H](CNC(=O)c5cc(F)c(O)c(F)c5)CC4)nc3c2)s1 [Example 115]
Ans. 190

Qu. Entry O=C(NC[C@]12CC[C@](c3nc(-c4ccc(C(F)(F)F)nc4)no3)(CC1)CC2)c1cc(F)c(O)c(F)c1F [Example 196] , system wild type human HSD17B13 (Homo sapiens (Human), UniProt Q7Z5P4): what IC50 was measured?
Ans. 340

Qu. Which measured IC50 belongs to O=C(NC[C@]12CC[C@](c3nc(-c4cnc(C(F)(F)F)cn4)no3)(CC1)CC2)c1cc(F)c(O)c(F)c1F [Example 178] , tested on wild type human HSD17B13 (Homo sapiens (Human), UniProt Q7Z5P4)?
Ans. 150

Qu. Notebook entry, wild type human HSD17B13 (Homo sapiens (Human), UniProt Q7Z5P4) assay: IC50 of COc1nn(C)cc1-c1ccc2cn([C@H]3CC[C@H](CNC(=O)c4cc(F)c(O)c(F)c4)CC3)nc2c1 [Example 42] = ?
Ans. 260

Qu. Please state recorded IC50 (tested on wild type human HSD17B13 (Homo sapiens (Human), UniProt Q7Z5P4)) of O=C(NC[C@H]1CC[C@H](n2cc3ccc(-c4ccn5nccc5c4)cc3n2)CC1)c1cc(F)c(O)c(F)c1 [Example 89, trifluoroacetate salt]
Ans. 130

* * *

- TARGET OF ASSAY: HSD17B13 enzyme (Homo sapiens (Human))
Where a name gives a salt, the structure may show the parent alone.
Would you kindly list pIC50 for each of these compounds?
# pIC50 is unitless: minus log10 of the molar concentration; print number only

Qu. Report pIC50 for N#Cc1ccc2cn([C@H]3CC[C@H](CNC(=O)c4cc(F)c(O)c(F)c4)CC3)nc2c1 [Example 134, ammonium salt] please.
Ans. 7.49

Qu. Fill in the blank: the reported pIC50 of `Cn1cc(-c2ccc3cn([C@H]4CC[C@H](CNC(=O)c5cc(F)c(O)c(F)c5)CC4)nc3c2)c(F)n1` is ____.
Ans. 8.19

Qu. What value of measured pIC50 is listed for `O=C(NC[C@H]1CC[C@H](n2cc3ccc(-c4cscn4)cc3n2)CC1)c1cc(F)c(O)c(F)c1` ?
Ans. 8.08

Qu. Form field: reported pIC50 of `O=C(NC[C@H]1CC[C@H](n2cc3cc(C(F)(F)F)ccc3n2)CC1)c1cc(F)c(O)c(F)c1F`
Ans. 7.80

Qu. Please report the recorded pIC50 for `Cn1ncc(-c2ccc3cn([C@H]4CC[C@H](CNC(=O)c5cc(F)c(O)c(F)c5)CC4)nc3c2)c1C(F)(F)F` .
Ans. 8.02

Qu. Field request: pIC50 | item: O=C(NC[C@H]1CC[C@H](n2cc3ccc(F)cc3n2)CC1)c1cc(F)c(O)c(F)c1 [Example 16, ammonium salt]
Ans. 7.77

Qu. Fill blank: measured pIC50 of the compound O=C(NC[C@H]1CC[C@H](n2cc3ccc(C(F)(F)F)cc3n2)CC1)c1cc(F)c(O)c(F)c1 [Example 137, ammonium salt] is ____.
Ans. 7.60

Qu. Given the entry `Cc1ncc(-c2ccc3cn([C@H]4CC[C@H](CNC(=O)c5cc(F)c(O)c(F)c5)CC4)nc3c2)cn1` , report its measured pIC50.
Ans. 7.89

Qu. Using the record for `CN1CCn2ncc(-c3ccc4cn([C@H]5CC[C@H](CNC(=O)c6cc(F)c(O)c(F)c6)CC5)nc4c3)c21` , report its pIC50.
Ans. 7.68

Qu. Can you share its pIC50? I mean this compound: `O=C(NC[C@H]1CC[C@H](n2cc3ccc(-c4cnn(C5COC5)c4)cc3n2)CC1)c1cc(F)c(O)c(F)c1`
Ans. 8.27

Qu. What value of pIC50 has been reported for the following compound? `O=C(NC[C@]12CC[C@](c3nc(-c4ccc(C(F)F)nc4)no3)(CC1)CC2)c1cc(F)c(O)c(F)c1`
Ans. 8.00

Qu. Consider the compound shown here: `O=C(NC[C@H]1CC[C@H](n2cc3ccc(-c4ncccn4)cc3n2)CC1)c1cc(F)c(O)c(F)c1` What is its recorded pIC50?
Ans. 7.85

Qu. Would you kindly share the measured pIC50 for `Cc1noc([C@H]2CC[C@H](CNC(=O)c3cc(F)c(O)c(F)c3)CC2)n1` ?
Ans. 7.19

* * *

So I've got a bunch of molecules here, and I need their pIC50 values.
- TARGET OF ASSAY: wild type human HSD17B13 (Homo sapiens (Human))
- ASSAY NAME: HEK_Beta-Est LCMS_IC50_Tekcel, whole-cell HEK-HSD17B13 inhibition assay, estrone production by LCMS
- STATED CONDITIONS: geometric mean, HEK cells stably expressing wild type human HSD17B13, 25 μM FAC beta-estradiol, read-out: HEK_Beta-Est LCMS_IC50—Tekcel GMean IC50
Where a name gives a salt, the structure may show the parent alone.
Interpret pIC50 as the negative base-10 log of the concentration measured in mol/L.

Qu. What reported pIC50 corresponds to `O=C(NC[C@H]1CC[C@H](n2cc3cc(-c4ncccn4)ccc3n2)CC1)c1cc(F)c(O)c(F)c1` on wild type human HSD17B13 (Homo sapiens (Human))?
Ans. 6.96

Qu. # get_value(readout= pIC50, system= wild type human HSD17B13 (Homo sapiens (Human))) for O=C(NC[C@H]1CC[C@H](n2cc3ccc(-n4cccn4)cc3n2)CC1)c1cc(F)c(O)c(F)c1F [Example 158, trifluoroacetate salt]
Ans. 6.72

Qu. Request: pIC50, test system wild type human HSD17B13 (Homo sapiens (Human)), entry `O=C(NC[C@]12CC[C@](c3nc(-c4ncc(C(F)(F)F)cn4)no3)(CC1)CC2)c1cc(F)c(O)c(F)c1`
Ans. 7.01

Qu. Given the entry O=C(NC[C@H]1CC[C@H](n2cc3ccc(Cl)cc3n2)CC1)c1cc(F)c(O)c(F)c1 [Example 135, ammonium salt] , what pIC50 was observed with wild type human HSD17B13 (Homo sapiens (Human))?
Ans. 6.60

Qu. Give pIC50 (wild type human HSD17B13 (Homo sapiens (Human))) of the following molecule: `O=C(NC[C@H]1CC[C@H](n2cc3cc(-c4cccnc4)ncc3n2)CC1)c1cc(F)c(O)c(F)c1`
Ans. 6.43

Qu. Lab note: need pIC50 with wild type human HSD17B13 (Homo sapiens (Human)) for entry `O=C(NC[C@H]1CC[C@H](n2cc3ccc(-c4cncs4)cc3n2)CC1)c1cc(F)c(O)c(F)c1` , please look it up.
Ans. 7.07

Qu. API: value(readout=pIC50, system=wild type human HSD17B13 (Homo sapiens (Human))) for record `Cn1cc(-c2ccn3cc([C@H]4CC[C@H](CNC(=O)c5cc(F)c(O)c(F)c5F)CC4)nc3c2)cn1`
Ans. 6.44

* * *

Please respond with reported pIC50 for every item in the list.
Entry type: numeric. Quantity: pIC50, the -log10 of concentration in molar units.

Qu. Record `N#Cc1ccc(-c2ccc3cn([C@H]4CC[C@H](CNC(=O)c5cc(F)c(O)c(F)c5)CC4)nc3c2)cc1` : what is its pIC50 with HSD17B13 enzyme (Homo sapiens (Human), UniProt Q7Z5P4)?
Ans. 8.42

Qu. Field: pIC50 (HSD17B13 enzyme (Homo sapiens (Human), UniProt Q7Z5P4)). Entry: `COc1ncc(-c2cc3nn([C@H]4CC[C@H](CNC(=O)c5cc(F)c(O)c(F)c5)CC4)cc3cn2)cn1`
Ans. 7.74

Qu. For the record `O=C(NC[C@H]1CC[C@H](n2cc3ccc(Cl)cc3n2)CC1)c1cc(F)c(O)c(F)c1F` , what value of pIC50 is listed for HSD17B13 enzyme (Homo sapiens (Human), UniProt Q7Z5P4)?
Ans. 7.85

Qu. Provide value of pIC50 for this record tested with HSD17B13 enzyme (Homo sapiens (Human), UniProt Q7Z5P4): `O=C(NC[C@]12CC[C@](c3nc(-c4cnc(C(F)(F)F)cn4)no3)(CC1)CC2)c1cc(F)c(O)c(F)c1`
Sequence (Q7Z5P4 20-300): as above
Ans. 8.01
